Molecular target: Sigma-2 receptor (Rattus norvegicus)
Experiment: Ability to displace [3H]ditolylguanidine in the presence of 100 nM (+)-pentazocine from Sigma opioid receptor type 2 of rat liver
pKi: −log10 of the molar value.
reported.property: pKi

>  <molecule>
OC1Cc2ccccc2C2(CCN(Cc3ccccc3)CC2)O1 (stereo unspecified)

>  <assayed.target>
Sigma-2 receptor (Rattus norvegicus)

>  <assay.result>
6.29

$$$$

---

Molecular target: Sigma non-opioid intracellular receptor 1 (Cavia porcellus)
Experiment: Ability to displace [3H](+)-pentazocine from Sigma opioid receptor type 1 of guinea pig brain
pKi: −log10 of the molar value.

>  <compound>
OC1Cc2ccccc2C2(CCN(Cc3ccccc3)CC2)O1 (stereo unspecified)

>  <pKi>
8.66

$$$$
